System: K. pneumoniae ATCC 10031
assay name: Intrinsic MIC assay (broth microdilution), K. pneumoniae
Format: cell-based, Klebsiella pneumoniae
condition: Klebsiella pneumoniae, ATCC10031; K. pneumoniae ATCC 10031; read-out: Intrinsic MIC
assay endpoint: MIC

{"molecule": "CC(NCCCNC(=O)c1ccc(Cl)o1)c1cc2cc(Br)ccc2[nH]1 (stereo not drawn) [Example 26]", "observed result": "16 µg/mL"}
{"molecule": "CC(NCCCCOc1ccc(Cl)c(Cl)c1)c1cc2cc(Br)ccc2[nH]1 (stereo not drawn) [Example 38]", "observed result": "4 µg/mL"}
{"molecule": "CC(N)c1cc2c(Cl)cc(Cl)cc2[nH]1 (stereo not drawn) [Example 15]", "observed result": "64 µg/mL"}
{"molecule": "NCc1cc2ccc(Br)cc2[nH]1 [Example 13, (6-Bromo-1H-indol-2-yl)methanamine]", "observed result": "256 µg/mL"}
{"molecule": "CC(N)c1cc2ccc(Br)cc2[nH]1 (stereo not drawn) [Example 10, 1-(6-Bromo-1H-indol-2-yl)ethan-1-amine]", "observed result": "128 µg/mL"}
{"molecule": "NC1CCc2c1[nH]c1ccc(Br)cc21 (stereo not drawn) [Example 18]", "observed result": "32 µg/mL"}
{"molecule": "CC(NCCCN)c1cc2cc(Br)ccc2[nH]1 (stereo not drawn) [Example 24]", "observed result": "64 µg/mL"}
{"molecule": "CC(c1cc2cc(Br)ccc2[nH]1)N(C)C (stereo not drawn) [Example 16]", "observed result": "256 µg/mL"}
{"molecule": "CC(N)c1cc2cc(F)ccc2[nH]1 (stereo not drawn) [Example 7, 1-(5-Fluoro-1H-indol-2-yl)ethan-1-amine]", "observed result": "> 256 µg/mL"}

###

Tested on: K. pneumoniae ATCC 10031
assay name: Intrinsic MIC assay (broth microdilution), K. pneumoniae
Type: cell-based, Klebsiella pneumoniae
condition: Klebsiella pneumoniae, ATCC10031; K. pneumoniae ATCC 10031; read-out: Intrinsic MIC
assay endpoint: MIC (µg/mL)

{"compound": "CC(N)c1cc2cc(C(F)(F)F)ccc2[nH]1 (centres unmarked) [Example 9]", "assay endpoint": "MIC", "result units": "µg/mL", "comparative sign": "=", "observed result": 64}
{"compound": "CC(NCC1CC1)c1cc2cc(Br)ccc2[nH]1 (centres unmarked) [Example 35]", "assay endpoint": "MIC", "result units": "µg/mL", "comparative sign": "=", "observed result": 64}
{"compound": "NC(CCc1ccccc1)c1cc2cc(Br)ccc2[nH]1 (centres unmarked) [Example 36]", "assay endpoint": "MIC", "result units": "µg/mL", "comparative sign": "=", "observed result": 8}
{"compound": "NCc1cc2cc(Br)ccc2[nH]1 [Example 14, (5-Bromo-1H-indol-2-yl)methanamine]", "assay endpoint": "MIC", "result units": "µg/mL", "comparative sign": "=", "observed result": 64}
{"compound": "CC(NCCc1ccccc1)c1cc2cc(Br)ccc2[nH]1 (centres unmarked) [Example 33]", "assay endpoint": "MIC", "result units": "µg/mL", "comparative sign": "=", "observed result": 4}
{"compound": "NC1CCCCc2c1[nH]c1ccc(Br)cc21 (centres unmarked) [Example 19]", "assay endpoint": "MIC", "result units": "µg/mL", "comparative sign": "=", "observed result": 16}
{"compound": "NC1CCc2c1[nH]c1cc(Cl)c(Cl)cc21 (centres unmarked) [Example 23]", "assay endpoint": "MIC", "result units": "µg/mL", "comparative sign": "=", "observed result": 8}
{"compound": "CC(NCCCNC(=O)C1CCCCC1)c1cc2cc(Br)ccc2[nH]1 (centres unmarked) [Example 31]", "assay endpoint": "MIC", "result units": "µg/mL", "comparative sign": "=", "observed result": 16}
{"compound": "CCNCCNC(C)c1cc2cc(Br)ccc2[nH]1 (centres unmarked) [Example 39]", "assay endpoint": "MIC", "result units": "µg/mL", "comparative sign": "=", "observed result": 128}
{"compound": "COc1ccc2[nH]c(C(C)N)cc2c1 (centres unmarked) [Example 8, 1-(5-Methoxy-1H-indol-2-yl)ethan-1-amine]", "assay endpoint": "MIC", "result units": "µg/mL", "comparative sign": ">", "observed result": 256}
{"compound": "CC(NCCCC(=O)Nc1ccc(Cl)c(Cl)c1)c1cc2cc(Br)ccc2[nH]1 (centres unmarked) [Example 37]", "assay endpoint": "MIC", "result units": "µg/mL", "comparative sign": "=", "observed result": 4}
{"compound": "CC(NCCCNC(=O)c1ccc(Cl)s1)c1cc2cc(Br)ccc2[nH]1 (centres unmarked) [Example 27]", "assay endpoint": "MIC", "result units": "µg/mL", "comparative sign": "=", "observed result": 8}
{"compound": "CC(NCCCNC(=O)c1cc(Cl)c(Cl)s1)c1cc2cc(Br)ccc2[nH]1 (centres unmarked) [Example 25]", "assay endpoint": "MIC", "result units": "µg/mL", "comparative sign": "=", "observed result": 1}
{"compound": "CC(NCCCNC(=O)c1ccc(Cl)c(Cl)c1)c1cc2cc(Br)ccc2[nH]1 (centres unmarked) [Example 30]", "assay endpoint": "MIC", "result units": "µg/mL", "comparative sign": "=", "observed result": 4}
{"compound": "NCCCNC1CCCCc2c1[nH]c1ccc(Br)cc21 (centres unmarked) [Example 28]", "assay endpoint": "MIC", "result units": "µg/mL", "comparative sign": "=", "observed result": 8}
{"compound": "CCCCNC(C)c1cc2cc(Br)ccc2[nH]1 (centres unmarked) [Example 32]", "assay endpoint": "MIC", "result units": "µg/mL", "comparative sign": "=", "observed result": 16}
{"compound": "CC(N)c1cc2ccccc2[nH]1 (centres unmarked) [Example 4, 1-(1H-Indol-2-yl)ethan-1-amine]", "assay endpoint": "MIC", "result units": "µg/mL", "comparative sign": ">", "observed result": 256}
{"compound": "NC1CCc2c1[nH]c1ccc(Cl)c(Cl)c21 (centres unmarked) [Example 22]", "assay endpoint": "MIC", "result units": "µg/mL", "comparative sign": "=", "observed result": 8}
{"compound": "CC(N)c1cc2cc(F)c(F)cc2[nH]1 (centres unmarked) [Example 17]", "assay endpoint": "MIC", "result units": "µg/mL", "comparative sign": "=", "observed result": 128}
{"compound": "CC(N)c1cc2cc(Br)ccc2[nH]1 (centres unmarked) [Example 1, 1-(5-Bromo-1H-indol-2-yl)ethan-1-amine]", "assay endpoint": "MIC", "result units": "µg/mL", "comparative sign": "=", "observed result": 64}
{"compound": "CC(NCCNC(=O)c1ccc(Cl)c(Cl)c1)c1cc2cc(Br)ccc2[nH]1 (centres unmarked) [Example 34]", "assay endpoint": "MIC", "result units": "µg/mL", "comparative sign": "=", "observed result": 4}
{"compound": "CNC(C)c1cc2cc(Br)ccc2[nH]1 (centres unmarked) [Example 3]", "assay endpoint": "MIC", "result units": "µg/mL", "comparative sign": "=", "observed result": 128}
{"compound": "CC(N)c1cc2cc(Br)ccc2n1C (centres unmarked) [Example 5]", "assay endpoint": "MIC", "result units": "µg/mL", "comparative sign": "=", "observed result": 64}
{"compound": "CC(N)c1cc2cc(OC(F)(F)F)ccc2[nH]1 (centres unmarked) [Example 11]", "assay endpoint": "MIC", "result units": "µg/mL", "comparative sign": "=", "observed result": 64}
{"compound": "CC(c1cc2ccccc2[nH]1)N(C)C (centres unmarked) [Example 12]", "assay endpoint": "MIC", "result units": "µg/mL", "comparative sign": ">", "observed result": 256}
{"compound": "NCCCNC1CCc2c1[nH]c1ccc(Br)cc21 (centres unmarked) [Example 29]", "assay endpoint": "MIC", "result units": "µg/mL", "comparative sign": "=", "observed result": 32}

###

Test system: P. Aeruginosa PAO1
assay name: Intrinsic MIC assay (broth microdilution), P. aeruginosa PAO1
Type: cell-based, Pseudomonas aeruginosa
condition: P. Aeruginosa PAO1, without EPI
Below, each entry is listed with its recorded Intrinsic MIC.

{"compound": "CC(N)c1cc2cc(F)ccc2[nH]1 (centres unmarked)", "Intrinsic MIC, mg/L": 256}
{"compound": "NC1CCc2c1[nH]c1ccc(Cl)c(Cl)c21 (centres unmarked)", "Intrinsic MIC, mg/L": 32}
{"compound": "CC(N)c1cc2c(Cl)cc(Cl)cc2[nH]1 (centres unmarked)", "Intrinsic MIC, mg/L": 256}
{"compound": "CC(N)c1cc2cc(F)c(F)cc2[nH]1 (centres unmarked)", "Intrinsic MIC, mg/L": 256}
{"compound": "CC(N)c1cc2cc(Br)ccc2[nH]1 (centres unmarked)", "Intrinsic MIC, mg/L": 128}
